ASSAYED_SYSTEM: Mineralocorticoid receptor (Homo sapiens)
Sequence (P08235 whole entry): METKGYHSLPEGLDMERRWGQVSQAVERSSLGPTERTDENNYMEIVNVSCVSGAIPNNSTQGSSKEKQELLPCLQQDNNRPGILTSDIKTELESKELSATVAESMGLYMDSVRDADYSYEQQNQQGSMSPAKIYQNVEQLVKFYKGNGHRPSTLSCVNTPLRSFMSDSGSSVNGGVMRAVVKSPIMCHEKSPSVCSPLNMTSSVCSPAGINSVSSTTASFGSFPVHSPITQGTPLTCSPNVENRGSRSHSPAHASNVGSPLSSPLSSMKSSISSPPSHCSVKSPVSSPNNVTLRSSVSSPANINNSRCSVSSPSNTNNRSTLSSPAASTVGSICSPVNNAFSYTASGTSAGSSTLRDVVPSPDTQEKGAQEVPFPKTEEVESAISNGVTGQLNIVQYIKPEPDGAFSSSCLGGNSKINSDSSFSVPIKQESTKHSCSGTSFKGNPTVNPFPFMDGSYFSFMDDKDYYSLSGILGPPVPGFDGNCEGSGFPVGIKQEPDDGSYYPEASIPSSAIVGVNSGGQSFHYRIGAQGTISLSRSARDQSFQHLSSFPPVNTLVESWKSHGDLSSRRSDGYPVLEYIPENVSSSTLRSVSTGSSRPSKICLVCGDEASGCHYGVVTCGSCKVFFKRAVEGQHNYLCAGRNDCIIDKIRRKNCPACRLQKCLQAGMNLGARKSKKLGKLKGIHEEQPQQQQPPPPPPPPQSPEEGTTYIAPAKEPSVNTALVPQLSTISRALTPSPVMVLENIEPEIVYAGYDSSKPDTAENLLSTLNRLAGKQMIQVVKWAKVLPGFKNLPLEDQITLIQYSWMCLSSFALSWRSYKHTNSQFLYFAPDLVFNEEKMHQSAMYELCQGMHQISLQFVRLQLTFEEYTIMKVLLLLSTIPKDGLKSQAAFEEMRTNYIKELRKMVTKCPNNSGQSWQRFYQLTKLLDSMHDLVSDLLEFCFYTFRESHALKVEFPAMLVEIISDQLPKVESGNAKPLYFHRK
Below, IC50 values reported for Mineralocorticoid receptor (Homo sapiens) across several publications.
MEASURED_PARAMETER: IC50 (nM)

COC(=O)C1=C(C)NC(C)=C(C(=O)OC(C)(C)C)C1c1ccc(F)cc1 (stereo not given)	288
COc1ccc(F)cc1C(C)(C)CC(O)(Cc1cc2cccnc2[nH]1)C(F)(F)F (stereo not given)	910
COc1ccc(F)cc1C(C)(C)CC(O)(Cc1cc2ccncc2o1)C(F)(F)F (stereo not given)	1050

1 = COc1ccc(C)c(C(C)(C)CC(O)(Cn2ccc(=O)c3ccccc32)C(F)(F)F)c1 (stereo not given)
2 = C[C@H](NC(=O)[C@@]1(Cc2ccccc2)OC(=O)N([C@H](C)c2ccccc2)C1=O)c1cccc(Cl)c1
Enquiry: Param metric = IC50; output whichever of 1 , 2 has the minimum value. Reply briefly: the label of your chosen item.
Return: 1

* * *

Below, IC50 values reported for Mineralocorticoid receptor (Homo sapiens, UniProt P08235) across several publications.
ASSAYED_SYSTEM: Mineralocorticoid receptor (Homo sapiens, UniProt P08235)
Sequence (P08235 whole entry): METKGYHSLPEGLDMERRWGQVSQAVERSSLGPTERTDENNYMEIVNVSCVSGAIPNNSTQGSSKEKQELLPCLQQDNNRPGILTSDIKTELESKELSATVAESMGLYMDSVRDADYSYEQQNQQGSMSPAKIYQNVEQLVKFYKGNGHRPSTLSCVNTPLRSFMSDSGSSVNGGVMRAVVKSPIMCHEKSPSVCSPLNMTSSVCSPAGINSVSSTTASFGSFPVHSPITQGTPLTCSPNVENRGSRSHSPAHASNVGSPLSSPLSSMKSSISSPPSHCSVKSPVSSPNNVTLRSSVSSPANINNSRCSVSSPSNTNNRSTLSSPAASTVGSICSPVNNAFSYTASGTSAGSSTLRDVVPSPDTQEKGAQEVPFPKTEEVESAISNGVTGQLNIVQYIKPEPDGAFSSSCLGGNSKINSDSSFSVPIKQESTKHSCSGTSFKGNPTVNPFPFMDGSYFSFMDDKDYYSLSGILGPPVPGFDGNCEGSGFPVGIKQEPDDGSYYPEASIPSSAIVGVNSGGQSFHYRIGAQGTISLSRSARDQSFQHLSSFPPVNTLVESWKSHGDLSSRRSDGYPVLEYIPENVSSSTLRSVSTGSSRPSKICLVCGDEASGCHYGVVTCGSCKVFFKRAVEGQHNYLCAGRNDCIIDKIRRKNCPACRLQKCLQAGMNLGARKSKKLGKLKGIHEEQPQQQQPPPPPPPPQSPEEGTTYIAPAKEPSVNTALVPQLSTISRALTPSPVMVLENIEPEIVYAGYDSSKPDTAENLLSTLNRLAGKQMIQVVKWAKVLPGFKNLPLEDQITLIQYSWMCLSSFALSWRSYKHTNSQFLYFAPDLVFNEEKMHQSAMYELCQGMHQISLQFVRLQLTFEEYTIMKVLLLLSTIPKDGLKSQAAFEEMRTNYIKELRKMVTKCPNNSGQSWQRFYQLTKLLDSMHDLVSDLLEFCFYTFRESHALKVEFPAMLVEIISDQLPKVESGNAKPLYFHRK
MEASURED_PARAMETER: IC50 (nM)

Cc1c(NS(C)(=O)=O)cccc1N(Cc1ccccc1)Cc1ccc(Oc2cccc(OCCCC(=O)NCCCC(=O)O)c2)cc1	120
COC(=O)C1=C(C)NC(C)=C(C#N)[C@@H]1c1ccnc2ccccc12	469
C[C@H](c1ccccc1)N1C(=O)O[C@](Cc2ccccc2)(C(=O)NCCc2ccccn2)C1=O	15000
C[C@H](c1ccccc1)N1C(=O)O[C@](Cc2ccccc2)(C(=O)NC2CC2)C1=O	2000
COC(=O)C1=C(Cn2ccnc2)NC(C)=C(C#N)C1c1ccc(F)cc1Cl (configuration not stated)	9
COC(=O)C1=C(CCl)NC(C)=C(C#N)[C@@H]1c1ccnc2ccccc12	2800
COC(=O)C1=C(C)NC(C)=C(C(=O)OC(C)(C)C)C1c1ccccc1OC (configuration not stated)	553
C[C@H](c1ccccc1)N1C(=O)O[C@](Cc2ccccc2)(C(=O)NC2CCC2)C1=O	1200

a = COc1ccccc1CNC(=O)[C@@]1(Cc2ccccc2)OC(=O)N([C@H](C)c2ccccc2)C1=O
b = Cc1cc(C)c(S(=O)(=O)N[C@@H](C)Cc2c[nH]c3ccccc23)c(C)c1
Enquiry: Which has the higher IC50, a or b ? Reply briefly: the label of your chosen item.
Return: a
(a: 500 nM, b: 290 nM)

* * *

Below, pIC50 values reported for Mineralocorticoid receptor (Homo sapiens) across several publications.
pIC50: −log10 of the molar value.
MEASURED_PARAMETER: pIC50

Consider the following illustrative entries.
C[C@H](c1ccccc1)N1C(=O)O[C@](Cc2ccccc2)(C(=O)NC2CCCCC2)C1=O	5.40
COc1cc(CNC(=O)[C@@]2(Cc3ccncc3)OC(=O)N(Cc3ccccc3)C2=O)cc(OC)c1	4.52
COc1ccc(-c2cccnc2)cc1C(C)(C)CC(O)(Cc1cc2ccncc2[nH]1)C(F)(F)F (configuration not stated)	6.41
COc1ccc(F)cc1C(C)(C)CC(O)(Cn1cc(C)c(=O)c(C)c1)C(F)(F)F (configuration not stated)	5.72
CC(C)(CC(O)(Cc1ccccc1)C(=O)Nc1ccc2c(c1)COC2=O)c1cc(F)ccc1O (configuration not stated)	6.72
C[C@H](c1ccc(F)cc1)N1C(=O)O[C@](Cc2ccccc2)(C(=O)Nc2ccccc2)C1=O	6.57
CCC(Cc1ccc(O)c2ccccc12)NS(=O)(=O)c1c(C)cc(C)cc1C (configuration not stated)	6.96
CC(C)(CC(O)(Cc1cc2ccncc2[nH]1)C(F)(F)F)c1cc(-c2cccnc2)ccc1O (configuration not stated)	6.64

1 = COC(=O)C1=C(Cn2cnnn2)NC(C)=C(C#N)[C@H]1c1ccc(F)cc1Cl
2 = CCC(Cc1ccccc1C)NS(=O)(=O)c1c(C)cc(C)cc1C (configuration not stated)
Enquiry: Which has the higher pIC50, 1 or 2 ? Reply briefly: the label of your chosen item.
Return: 1

* * *

ASSAYED_SYSTEM: Mineralocorticoid receptor (Homo sapiens)
Sequence (P08235 whole entry): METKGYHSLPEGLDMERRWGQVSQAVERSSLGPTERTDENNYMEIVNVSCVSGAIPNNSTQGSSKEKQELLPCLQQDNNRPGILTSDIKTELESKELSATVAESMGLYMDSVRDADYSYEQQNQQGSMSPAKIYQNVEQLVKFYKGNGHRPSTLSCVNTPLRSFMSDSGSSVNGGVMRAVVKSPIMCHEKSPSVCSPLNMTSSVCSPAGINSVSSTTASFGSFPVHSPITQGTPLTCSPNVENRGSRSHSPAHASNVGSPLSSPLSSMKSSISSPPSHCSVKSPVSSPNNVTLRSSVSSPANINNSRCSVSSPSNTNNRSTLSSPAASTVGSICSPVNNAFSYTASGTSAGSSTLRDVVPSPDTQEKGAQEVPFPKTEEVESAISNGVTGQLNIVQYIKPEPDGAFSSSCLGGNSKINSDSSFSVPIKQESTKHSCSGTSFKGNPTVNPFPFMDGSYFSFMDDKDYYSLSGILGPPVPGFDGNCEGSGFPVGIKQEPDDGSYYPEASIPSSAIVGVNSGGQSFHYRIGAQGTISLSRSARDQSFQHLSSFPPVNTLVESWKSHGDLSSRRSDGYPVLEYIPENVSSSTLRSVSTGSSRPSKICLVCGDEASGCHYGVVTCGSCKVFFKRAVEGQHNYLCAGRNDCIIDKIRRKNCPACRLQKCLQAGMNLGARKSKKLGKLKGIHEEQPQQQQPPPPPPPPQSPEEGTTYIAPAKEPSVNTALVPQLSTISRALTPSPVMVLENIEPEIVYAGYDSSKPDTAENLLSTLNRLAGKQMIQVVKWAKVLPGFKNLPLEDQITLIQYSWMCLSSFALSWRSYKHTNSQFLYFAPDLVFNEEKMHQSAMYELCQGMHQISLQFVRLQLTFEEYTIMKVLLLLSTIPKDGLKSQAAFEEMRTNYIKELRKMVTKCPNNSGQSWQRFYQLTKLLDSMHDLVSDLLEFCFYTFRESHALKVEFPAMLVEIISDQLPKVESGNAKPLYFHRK
Below, IC50 values reported for Mineralocorticoid receptor (Homo sapiens) across several publications.
MEASURED_PARAMETER: IC50 (nM)

Consider the following illustrative entries.
C[C@H](c1ccccc1)N1C(=O)O[C@](Cc2ccccc2)(C(=O)N2CCc3ccccc3C2)C1=O	340
CC(Cc1c[nH]c2ccccc12)NS(=O)(=O)c1c(N)cc(Cl)cc1Cl (stereo not drawn)	510
COC(=O)C1=C(C)NC(C)=C(C#N)[C@H]1c1ccnc2ccccc12	77
CC(C)C(O)(CC(C)(C)c1ccccc1)C(=O)Nc1ccc2c(c1)COC2=O (stereo not drawn)	315
C[C@H](c1ccc(F)cc1)N1C(=O)O[C@](Cc2ccc(F)cc2)(C(=O)NCc2ccc(Cl)c(Cl)c2)C1=O	180

P = C[C@]12C=CC(=O)C=C1CC[C@@H]1[C@@H]2[C@@H](O)C[C@@]2(C)[C@H]1CC[C@]2(O)C(=O)CO
Q = CC(C)(CC(O)(Cn1ccc(=O)c2ccccc21)C(F)(F)F)c1cccc2c1OCC2 (stereo not drawn)
Enquiry: Param metric = IC50; output whichever of P , Q has the minimum value. Reply briefly: the label of your chosen item.
Return: P

I = COc1cccc2c1-c1ccc(NS(C)(=O)=O)cc1C(c1cccc(Cl)c1)O2 (stereo not drawn)
II = COc1ccc(F)cc1C(C)(C)CC(O)(Cn1ccc2ncccc21)C(F)(F)F (stereo not drawn)
Enquiry: Which has the higher IC50, I or II ? Reply briefly: the label of your chosen item.
Return: I

1 = CC(C)(CC(O)(Cc1cc2ccncc2[nH]1)C(F)(F)F)c1cc(F)cc2c1OCC2 (stereo not drawn)
2 = Cc1cc(C)c(S(=O)(=O)NC(Cc2c[nH]c3cccc(C)c23)C(F)(F)F)c(C)c1 (stereo not drawn)
Enquiry: Which has the higher IC50, 1 or 2 ? Reply briefly: the label of your chosen item.
Return: 1
(1: 280 nM, 2: 80 nM)

1 = CCc1ccccc1/C=C1\Oc2ccc(F)cc2-c2ccc3c(c21)C(C)=CC(C)(C)N3
2 = COC(=O)C1=C(C)NC(C)=C(C(=O)OC(C)(C)C)C1c1cccc(C(F)(F)F)c1 (stereo not drawn)
3 = C[C@H](c1ccc(F)cc1)N1C(=O)O[C@](Cc2ccccc2)(C(=O)Nc2ccc(Cl)cc2)C1=O
4 = C[C@H](c1ccccc1)N1C(=O)O[C@](Cc2ccccc2)(C(=O)NCc2cccnc2)C1=O
Enquiry: Order the 4 molecules from highest to lowest IC50. Would you mind listing the labels in the order asked for?
Return: 4, 2, 1, 3
(4: 13000 nM, 2: 702 nM, 1: 334 nM, 3: 180 nM)
